B1: Transitional endoplasmic reticulum ATPase, residues 26 to 106; numbered along this chain, P55072 (parent)
chain: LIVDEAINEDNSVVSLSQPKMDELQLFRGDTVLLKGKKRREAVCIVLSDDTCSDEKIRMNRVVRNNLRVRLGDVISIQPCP

# Variants of: B1
# test details: abundance fitness (aPCA) (normalised: wild type 0, dead -1); higher = more abundant; growth selection in yeast, the domain comes from the species named
# measurement setup: Homo sapiens
result type: abundance fitness
Give bare numbers.

mutation list	abundance fitness
T51I	-0.19
A42H	0.027
I45F	-0.018
Q18G	-0.034

I would be grateful if you could provide abundance fitness for each of the following entries.
1. E9D
2. Q25W
3. L33R
4. S53R
5. E23R
6. D30S

[0.041, -0.256, -0.068, -0.035, -0.09, -0.175]

I would be grateful if you could provide abundance fitness for each of the following entries.
1. N66I
2. I2N
3. I45E
4. A6K
5. G36C
6. L47S

1. -0.151
2. -0.059
3. 0.035
4. -0.154
5. 0.015
6. -0.068
